// data source = the supplement of paper PMC10567573

B1: LPCAT4 (parent)
chain: HDPLYGKLFSTYLRPPHTSRGTSQ

- Variants of: B1
- measurement_description: protein stability index of a GFP-peptide fusion (GPS, HEK-293T) (PSI 1-6); higher = more stable;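 also: lentivirally expressed fusions sorted by FACS into six bins by GFP to DsRed ratio, PSI derived from sequencing read proportions per bin multiplied by bin number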
- run_conditions: c terminus: a fixed tail appended
Outcome label depends on protein stability index relative to 3: at/above gives fulfilled, below gives not fulfilled.

Worked examples follow.
>  <mutation_name>
T22N

>  <assigned_label>
not fulfilled

$$$$
>  <mutation_name>
Y12L

>  <assigned_label>
not fulfilled

$$$$
>  <mutation_name>
K7I

>  <assigned_label>
not fulfilled

$$$$
>  <mutation_name>
G21R

>  <assigned_label>
not fulfilled

$$$$
>  <mutation_name>
T22W

>  <assigned_label>
not fulfilled

$$$$
>  <mutation_name>
P15T

>  <assigned_label>
not fulfilled

$$$$
>  <mutation_name>
S10C

>  <assigned_label>
not fulfilled

$$$$
>  <mutation_name>
P16M

>  <assigned_label>
fulfilled

$$$$

Inquiry: Item P15M with protein stability index of 3 or above?
Reply text: not fulfilled

Inquiry: Given H1C , state whether its protein stability index is at least 3.
Reply text: fulfilled
